# targetDesc: T1, Arabidopsis thaliana phytochrome B, N-terminal fragment encompassing the N-terminal extension (NTE) and the … (Arabidopsis thaliana, UniProt P14713 1-651, phycocyanobilin chromophore, covalently bound)
# T1 construct: Phytochrome B, Arabidopsis thaliana, GenBank CAA35222.1; N-terminal fragment with the NTE and the PCM (nPAS-GAF-PHY), lacking PAS1, PAS2 and the HKRD; source: E. coli LOBSTR, purified (Co2+-NTA IMAC, anion exchange); plasmid also encodes Synechocystis sp. heme oxygenase 1 and PcyA
# T1 sequence (looked up): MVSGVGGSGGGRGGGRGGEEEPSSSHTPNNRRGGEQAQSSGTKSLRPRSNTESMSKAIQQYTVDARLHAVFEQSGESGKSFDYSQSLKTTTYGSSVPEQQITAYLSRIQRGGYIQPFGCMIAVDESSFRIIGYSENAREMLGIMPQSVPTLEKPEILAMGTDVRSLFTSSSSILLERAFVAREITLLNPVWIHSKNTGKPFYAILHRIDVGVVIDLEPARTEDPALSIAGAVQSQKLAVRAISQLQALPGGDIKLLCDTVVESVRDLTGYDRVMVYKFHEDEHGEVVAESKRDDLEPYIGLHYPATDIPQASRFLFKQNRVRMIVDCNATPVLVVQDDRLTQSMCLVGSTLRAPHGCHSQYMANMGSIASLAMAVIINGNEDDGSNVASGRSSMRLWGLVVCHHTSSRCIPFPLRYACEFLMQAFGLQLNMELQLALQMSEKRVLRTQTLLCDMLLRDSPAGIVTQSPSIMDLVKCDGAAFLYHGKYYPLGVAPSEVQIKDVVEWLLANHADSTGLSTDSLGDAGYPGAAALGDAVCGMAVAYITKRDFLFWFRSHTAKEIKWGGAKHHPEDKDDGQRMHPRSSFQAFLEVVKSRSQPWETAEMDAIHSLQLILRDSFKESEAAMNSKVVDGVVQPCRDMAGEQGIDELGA
# testName: FRET or BRET; association kinetics at 15 °C after a 0.5-s pulse of red light (658 nm, 69 mW cm^-2, optical shutter); 20 nM PIF-mScarlet-I variant with 500 to 2,000 nM AtPhyB PCM, or 30 nM P6A-mScarlet-I with 750 to 2,500 nM AtPhyB (1-982); 50 mM Tris/HCl pH 8.0, 20 mM NaCl; pseudo-first-order, linear fit of koFR against the AtPhyB concentration; kaFR corrected for the Pfr fraction; Kd calculated from kdFR and kaFR …
# experimentalConditions: both partners purified
No end group written: not given here.
measuredMetric: kon (M⁻¹ s⁻¹)
Unit M⁻¹ s⁻¹ implied. Number only.

Q: I have this binder here, PIF3-mScarlet-I (Arabidopsis PIF3 residues 1 to 100 fused to mScarlet-I) (domain or fragment, Arabidopsis thaliana, UniProt O80536 1-100, looked up, mScarlet-I: GenBank APD76536; also called AtPIF3; source: E. coli LOBSTR, purified (IMAC, SENP2 cleavage, second IMAC, optionally anion exchange); not shown: His6-SUMO, N-terminal, cleaved) MPLFELFRLTKAKLESAQDRNPSPPVDEVVELVWENGQISTQSQSSRSRNIPPPQANSSRAREIGNGSKTTMVDEIPMSVPSLMTGLSQDDDFVPWLNHH , and I need its recorded kon.
Ans: 430000

Q: Lookup LESAQDRNPSPPVDEVVELVWENGQISTQSQSSRSRNIPPPQ-{mScarlet‑I} (domain or fragment, Arabidopsis thaliana, UniProt O80536 14-55, looked up, mScarlet-I: GenBank APD76536; source: E. coli LOBSTR, purified (IMAC, SENP2 cleavage, second IMAC, optionally anion exchange); not shown: His6-SUMO, N-terminal, cleaved; mScarlet-I, C-terminal, kept) [P3A-mScarlet-I (Arabidopsis PIF3 residues 14 to 55, APB.A portion, fused to mScarlet-I)]
Ans: 310000

Q: Lookup DQEYMELVFENGQILAKGQRSNVSLHNQRTKSIMDLYEAE-{mScarlet‑I} (domain or fragment, Arabidopsis thaliana, UniProt Q8L5W7 14-53, looked up, mScarlet-I: GenBank APD76536; source: E. coli LOBSTR, purified (IMAC, SENP2 cleavage, second IMAC, optionally anion exchange); not shown: His6-SUMO, N-terminal, cleaved; mScarlet-I, C-terminal, kept) [P6A-mScarlet-I (Arabidopsis PIF6 residues 14 to 53, APB.A portion, fused to mScarlet-I)]
Ans: 610000

Q: Lookup PIF6-mScarlet-I (Arabidopsis PIF6 residues 1 to 100 fused to mScarlet-I) (domain or fragment, Arabidopsis thaliana, UniProt Q8L5W7 1-100, looked up, mScarlet-I: GenBank APD76536; also called AtPIF6; source: E. coli LOBSTR, purified (IMAC, SENP2 cleavage, second IMAC, optionally anion exchange); not shown: His6-SUMO, N-terminal, cleaved) MMFLPTDYCCRLSDQEYMELVFENGQILAKGQRSNVSLHNQRTKSIMDLYEAEYNEDFMKSIIHGGGGAITNLGDTQVVPQSHVAAAHETNMLESNKHVD
Ans: 520000
